// provenance: ChEMBL document CHEMBL4376834

tested.system: Receptor-interacting serine/threonine-protein kinase 1 (Homo sapiens, UniProt Q13546)
Sequence (Q13546 whole entry, the tested form may be a part): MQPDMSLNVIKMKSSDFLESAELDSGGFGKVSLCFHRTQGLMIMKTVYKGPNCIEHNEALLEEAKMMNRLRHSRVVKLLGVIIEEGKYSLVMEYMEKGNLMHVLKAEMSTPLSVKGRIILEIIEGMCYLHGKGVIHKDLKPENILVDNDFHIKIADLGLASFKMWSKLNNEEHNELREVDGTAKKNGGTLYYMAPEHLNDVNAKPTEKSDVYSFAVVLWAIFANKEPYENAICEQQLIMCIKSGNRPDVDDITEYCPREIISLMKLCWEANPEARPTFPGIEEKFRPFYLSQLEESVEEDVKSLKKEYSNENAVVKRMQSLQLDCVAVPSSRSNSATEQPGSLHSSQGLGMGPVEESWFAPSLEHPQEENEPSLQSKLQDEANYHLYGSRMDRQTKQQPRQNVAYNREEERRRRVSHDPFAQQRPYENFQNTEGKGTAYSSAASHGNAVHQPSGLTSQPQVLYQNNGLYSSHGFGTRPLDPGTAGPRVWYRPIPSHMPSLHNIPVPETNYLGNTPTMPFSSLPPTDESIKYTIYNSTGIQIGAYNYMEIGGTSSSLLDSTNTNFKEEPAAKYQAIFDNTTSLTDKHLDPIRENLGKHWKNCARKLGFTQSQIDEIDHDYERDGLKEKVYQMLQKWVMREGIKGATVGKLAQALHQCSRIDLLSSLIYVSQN
protocol.details: Inhibition of recombinant human RIPK1 (8 to 322 residues) using myelin basic protein as substrate incubated for 40 mins in presence of [gamma33P]ATP by radiometric scintillation counting analysis
recorded.endpoint: IC50

Task item: GET /values?readout=IC50&system=Receptor-interacting serine/threonine-protein kinase 1 (Homo sapiens, UniProt Q13546)&item= `CN(C)c1ccc(C(=O)Nc2cccc(NC(=O)COc3ccc4c(=O)ccoc4c3)c2)cc1`
Reply: > 10 µM

====

tested.system: Tyrosine-protein kinase Yes (Homo sapiens)
Sequence (P07947 whole entry): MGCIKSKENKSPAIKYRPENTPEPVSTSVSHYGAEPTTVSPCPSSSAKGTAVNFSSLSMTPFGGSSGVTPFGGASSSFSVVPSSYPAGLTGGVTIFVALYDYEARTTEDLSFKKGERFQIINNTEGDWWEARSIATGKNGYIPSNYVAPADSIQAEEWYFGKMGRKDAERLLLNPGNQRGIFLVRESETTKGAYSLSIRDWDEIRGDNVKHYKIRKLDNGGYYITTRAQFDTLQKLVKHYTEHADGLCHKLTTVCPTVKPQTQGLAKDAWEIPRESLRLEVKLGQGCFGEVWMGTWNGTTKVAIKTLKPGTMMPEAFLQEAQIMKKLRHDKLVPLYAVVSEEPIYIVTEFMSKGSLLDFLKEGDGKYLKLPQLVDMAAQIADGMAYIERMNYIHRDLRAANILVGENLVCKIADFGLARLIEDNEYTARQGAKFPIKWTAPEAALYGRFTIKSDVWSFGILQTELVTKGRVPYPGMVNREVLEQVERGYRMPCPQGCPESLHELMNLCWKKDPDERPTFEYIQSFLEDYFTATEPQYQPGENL
protocol.details: Inhibition of recombinant full-length human Yes using poly(Glu, Tyr) 4:1 as substrate incubated for 40 mins in presence of [gamma33P]ATP by radiometric scintillation counting analysis
recorded.endpoint: IC50

Task item: Need IC50 of `CN(C)c1ccc(C(=O)Nc2cccc(NC(=O)COc3ccc4c(=O)ccoc4c3)c2)cc1` , thanks.
Reply: > 10 µM
